# Tested system: T1, human GIP receptor (human, UniProt P48546 22-466)
# T1 sequence (looked up): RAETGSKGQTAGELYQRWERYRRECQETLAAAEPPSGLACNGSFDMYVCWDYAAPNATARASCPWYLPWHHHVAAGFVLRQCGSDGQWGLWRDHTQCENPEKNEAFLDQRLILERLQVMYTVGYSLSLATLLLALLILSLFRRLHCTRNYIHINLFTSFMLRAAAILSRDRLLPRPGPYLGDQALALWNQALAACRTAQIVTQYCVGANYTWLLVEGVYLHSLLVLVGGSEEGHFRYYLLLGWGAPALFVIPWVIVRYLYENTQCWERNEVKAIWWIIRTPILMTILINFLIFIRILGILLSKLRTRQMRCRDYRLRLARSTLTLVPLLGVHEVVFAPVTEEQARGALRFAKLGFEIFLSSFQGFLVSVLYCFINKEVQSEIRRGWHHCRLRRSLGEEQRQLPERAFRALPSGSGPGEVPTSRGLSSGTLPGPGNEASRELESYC
# Protocol description: cell-based or functional assay
Ends that are not written are not given here. * marks the point of attachment. Stearoyl = CCCCCCCCCCCCCCCCCC(=O)*; Myristoyl = CCCCCCCCCCCCCC(=O)*; Lauroyl = CCCCCCCCCCCC(=O)*
Reported cAMP antagonism, log (IC50) values for a set of binders
Answer with the number, then the unit.

So what's the measured cAMP antagonism, log (IC50) for this one? EGTFISDYSIAMDK(Stearoyl)IHQQDFVNWLLAQK-NH2 [AT114 [hGIP(3-30)NH2-C18/16]]
-7.2 log M

// next record EGTFISDYSIAMDK(Myristoyl)IHQQDFVNWLLAQK-NH2 [AT111 [hGIP(3-30)NH2-C14/16]]
-7.6 log M

// next record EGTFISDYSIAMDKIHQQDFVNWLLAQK-NH2 [hGIP(3-30)NH2]
-7.2 log M

Moving on to another binder below.
So what's the measured cAMP antagonism, log (IC50) for this one? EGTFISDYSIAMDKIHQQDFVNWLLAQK(Lauroyl)-NH2 [AT103 [hGIP(3-30)NH2-C12/30]]
-6.9 log M
